Origin of measurements: PubChem BioAssay (NCI)

test-summary: NCI Yeast Anticancer Drug Screen. Data for the sgs1 mgt1 strain (AID 161);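 also: 0% = growth of cultures given vehicle only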
condition-context: S. cerevisiae sgs1 mgt1 strain, at 50.0 µM, hits give high values
Compounds without any hit were thinned out: in the full panel of roughly 79,000, 15% have a hit.
endpoint-label: growth inhibition (%)
Respond numerically; units are % and should not be typed.

Measured growth inhibition of O=c1c(O)c(-c2ccc(Cl)cc2)oc2cc(O)ccc12 : 89.7

For CCOc1ccccc1/C=C1\C=Nc2ccccc21 the molecule record lists growth inhibition as 16.2

Briefly, growth inhibition measured for COc1ccc(NC(=O)CSC(N)=O)cc1 : 64.1

// recorded growth inhibition for CCCCCCc1cc(C(=O)N/N=C\c2cccc([N+](=O)[O-])c2)c2ccccc2n1 : -19.9

// recorded growth inhibition for CCC(c1ccccc1)N1C(=O)c2ccccc2S1(=O)=O (stereo not given) : 25.3

Record summary for NC(=O)NC(=O)N/N=C/c1ccc([N+](=O)[O-])o1 : reported growth inhibition = 68.2

What the record says about COc1ccc(C2COc3c(ccc(O)c3O)C2)cc1OC (stereo not given) : growth inhibition is 40.1

Just so you know, measured growth inhibition for COc1ccc(CSC(=S)Nc2ccc(Cl)c([N+](=O)[O-])c2)cc1 came out at 88.4

Noted for Cc1ccc2c(c1)CSCCO2 : its growth inhibition reads 99.5

The recorded growth inhibition for NC(=S)N/N=C/c1cn(CCCl)c2ccccc12 is 62.9

growth inhibition measured on N#CC1=C(N)OC(c2ccccc2)=C(C#N)C1c1ccccc1 (stereo not given) = 99.3

Field growth inhibition (entry O=[N+]([O-])c1ccc(S(=O)/N=C/c2ccccc2)c([N+](=O)[O-])c1 (stereo not given) ) reads 67.6

Reported growth inhibition for CC(C)C(Cl)CC/C(CBr)=C(\Cl)CCl (stereo not given) was 92.4

# growth inhibition of Fc1ccc(OCCC(Cn2ccnc2)c2ccc(Cl)cc2Cl)cc1 (stereo not given) = 95.2

Reported growth inhibition for CNC(=O)OCC1=CC(=O)C(OC)=C(OC)C1=O was 28.4

Lab note: Cc1c(C(=O)N(CCO)CCO)[n+](=O)c2ccccc2n1[O-] gave growth inhibition of 14.7

In plain terms, CCCCCCCCCCCCCCC(C(=O)O)S(=O)(=O)O (stereo not given) has a documented growth inhibition of 87

Input O=C1CCCC2c3ccccc3NC12 (stereo not given) . Output growth inhibition: -2

Entry NC(=Nc1ccccc1)c1ccc2c(c1)c1c(n2Cc2ccccc2)CCCC1 ; growth inhibition = 99.6

// growth inhibition lookup, molecule = C/C=C/C=C1\C=Cc2c(C(=O)OC)coc(=O)c21 , result: 76.3

Record summary for O=[N+]([O-])c1ccc2c(c1)CCc1ccccc1-2 : reported growth inhibition = 76.6

growth inhibition recorded for this molecule, CCS(=O)(=O)/C=C/c1ccncc1 , is 6.4

Recorded growth inhibition (molecule NNC(=S)Nc1ccccc1 ): -14.6

The value of growth inhibition measured for the molecule ONC1=Nc2ccccc2OCc2cc(Br)c(Br)cc2COc2ccccc2N=C1NO turned out to be 91.5

For record C[N+](C)(CCCCCCOc1c(Br)cc(Br)cc1Br)Cc1ccc(Br)o1 the listed growth inhibition is 99.8

The value of growth inhibition measured for the molecule c1cc2cc(Cc3ccc4[nH]ccc4c3)ccc2[nH]1 turned out to be 13

Sure, the documented growth inhibition for Clc1ccc([I+]c2cccs2)cc1 is 8.95

Data point: CCOC(=O)C(=O)CC(=O)C(Br)C(Br)c1ccc(Cl)cc1 (stereo not given) ; growth inhibition = 99.4

Lookup result for COc1ccccc1/C=C1\Sc2scc(-c3ccc(O)c(O)c3)[n+]2C1=O ; measured growth inhibition: 99.3

Per the records, this molecule ( CC#CC(=O)Nc1ccccc1CC(c1c[nH]c2ccccc12)c1c[nH]c2ccccc12 ) has growth inhibition equal to 67.5

Short answer for Clc1ccc(SCCN2CCN(CCSc3ccc(Cl)cc3)CC2)cc1 : growth inhibition was 94.2

Reported growth inhibition for Cn1cc(NC(=O)c2cc(NC(=O)CCCCCCC(=O)Nc3cc(C(=O)Nc4cc(C(=O)NCCC(=N)N)n(C)c4)n(C)c3)cn2C)cc1C(=O)NCCC(=N)N was 93

The recorded growth inhibition for entry N#CC=Cc1ccc([N+](=O)[O-])s1 (mixture of isomers) equals 90.8

Memo: CCN(CC)CCNc1c(O)cc(C)c2sc3ccccc3c(=O)c12 , reported growth inhibition: 98.8

Lookup result for O=C1/C(=C/c2ccccc2)CCC/C1=C\c1ccc(O)c(CN2CCCCC2)c1 ; measured growth inhibition: 88.8
